Every entry's value here was drawn from PubChem BioAssay AID1963848.

- Test system: 379773-124-R-J2-PDC spheroid viability
- experiment-description: Anticancer human tumor 379773-124-R-J2-PDC patient-derived endometrial carcinoma cell line growth inhibition [POLQ]; active = viability on the fitted dose curve at most 10% of control; inactive = the rest
- experimental-conditions: second compound 0.0316 µM; first compound 0.1 µM; spheroids with HUVEC and MSC
Pick one: y (active), n (inactive)

Below are worked cases with known answers.
compound	category-label
CC1COCCN1c1cc(-c2ccnn2C)c2ccnc(-c3ccn[nH]3)c2n1 (stereo not given) + Nc1ccc(C#CCN(C(=O)Cc2ncc(C(F)(F)F)cc2C(F)(F)F)c2ccc(F)cc2)nn1	n
COc1cccc2c1C(=O)c1c(O)c3c(c(O)c1C2=O)CC(O)(C(=O)CO)CC3OC1CC(N)C(O)C(C)O1 (stereo not given) + Cc1cccc(N(C)C(=O)C2C(O)CCN2c2nc(C)cc(C(F)(F)F)c2C#N)c1	n

input: I'd appreciate the recorded outcome for Cn1ncnc1[C@H]1c2n[nH]c(=O)c3cc(F)cc(c23)N[C@@H]1c1ccc(F)cc1 + COC1C(OC(N)=O)C(O)C(Oc2ccc3c(O)c(NC(=O)c4ccc(O)c(CC=C(C)C)c4)c(=O)oc3c2C)OC1(C)C from this test.
output: n

input: Quick one: CCc1cc2c(N3CCc4c(cc(Cn5ccnc5)cc4-c4cn(C)nc4C(F)(F)F)C3=O)cc(C)nc2c(OC)n1 + Nc1ccc(C#CCN(C(=O)Cc2ncc(C(F)(F)F)cc2C(F)(F)F)c2ccc(F)cc2)nn1
output: n

input: Quick one: CNCc1ccc(-c2[nH]c3cc(F)cc4c3c2CCNC4=O)cc1 + COC1C(OC(N)=O)C(O)C(Oc2ccc3c(O)c(NC(=O)c4ccc(O)c(CC=C(C)C)c4)c(=O)oc3c2C)OC1(C)C
output: n

input: Quick one: O=C(c1cc(Cc2n[nH]c(=O)c3ccccc23)ccc1F)N1CCN(C(=O)C2CC2)CC1 + Cc1cccc(N(C)C(=O)C2C(O)CCN2c2nc(C)cc(C(F)(F)F)c2C#N)c1
output: n

input: Quick one: CCc1cc2c(N3CCc4c(cc(Cn5ccnc5)cc4-c4cn(C)nc4C(F)(F)F)C3=O)ccnc2c(OC)n1 + Nc1ccc(C#CCN(C(=O)Cc2ncc(C(F)(F)F)cc2C(F)(F)F)c2ccc(F)cc2)nn1
output: n

input: Quick one: COc1cc2cc(C(=O)CCC(=O)O)sc2cc1OC + COC1C(OC(N)=O)C(O)C(Oc2ccc3c(O)c(NC(=O)c4ccc(O)c(CC=C(C)C)c4)c(=O)oc3c2C)OC1(C)C
output: n

input: Quick one: C#Cc1c(F)ccc2cc(O)cc(-c3ncc4c(N5CC6CCC(C5)N6)nc(OCC56CCCN5CC(F)C6)nc4c3F)c12 (stereo not given) + COC1C(OC(N)=O)C(O)C(Oc2ccc3c(O)c(NC(=O)c4ccc(O)c(CC=C(C)C)c4)c(=O)oc3c2C)OC1(C)C
output: n

input: Quick one: COc1cccc(OCCCN)c1-c1cc(Nc2cnc(C#N)cn2)n[nH]1 + COC1C(OC(N)=O)C(O)C(Oc2ccc3c(O)c(NC(=O)c4ccc(O)c(CC=C(C)C)c4)c(=O)oc3c2C)OC1(C)C
output: y

---

- System: 379773-124-R-J2-PDC spheroid viability
- experiment-description: Anticancer human tumor 379773-124-R-J2-PDC cell line growth inhibition [POLQ];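 also: spheroids exposed to drugs for seven days before readout; percent viability relative to DMSO vehicle control taken as 100%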
- experimental-conditions: second compound 10 µM; first compound 3.16 µM; hits give low values; spheroids with HUVEC and MSC
Recorded measurements of viability, T/C, one per entry
I only need the number, in %, no unit after it.

compound	measured
CC(C)n1c(=O)n(C)c2cnc3cc(F)c(-c4ccc(OCCCN5CCCCC5)nc4)cc3c21 + Nc1ccc(C#CCN(C(=O)Cc2ncc(C(F)(F)F)cc2C(F)(F)F)c2ccc(F)cc2)nn1	75.2
COc1ccc([C@@H](O)c2cc(-c3ncnc4cc(N5CCOCC5)ccc34)c(F)cc2Cl)nn1 + COC1C(OC(N)=O)C(O)C(Oc2ccc3c(O)c(NC(=O)c4ccc(O)c(CC=C(C)C)c4)c(=O)oc3c2C)OC1(C)C	95.8
CC1COCCN1c1cc(C2(S(C)(=N)=O)CC2)nc(-c2ccnc3[nH]ccc23)n1 (stereo unspecified) + Cc1cccc(N(C)C(=O)C2C(O)CCN2c2nc(C)cc(C(F)(F)F)c2C#N)c1	32.2
CC1COCCN1c1cc(-c2ccnn2C)c2ccnc(-c3ccn[nH]3)c2n1 (stereo unspecified) + Cc1cccc(N(C)C(=O)C2C(O)CCN2c2nc(C)cc(C(F)(F)F)c2C#N)c1	9.04
CCCS(=O)(=O)Nc1ccc(F)c(C(=O)c2c[nH]c3ncc(-c4ccc(Cl)cc4)cc23)c1F + COC1C(OC(N)=O)C(O)C(Oc2ccc3c(O)c(NC(=O)c4ccc(O)c(CC=C(C)C)c4)c(=O)oc3c2C)OC1(C)C	75.9
COc1cc(C2c3cc4c(cc3C(OC3OC5COC(C)OC5C(O)C3O)C3COC(=O)C23)OCO4)cc(OC)c1O (stereo unspecified) + COC1C(OC(N)=O)C(O)C(Oc2ccc3c(O)c(NC(=O)c4ccc(O)c(CC=C(C)C)c4)c(=O)oc3c2C)OC1(C)C	14.1
O=c1[nH]cc(F)c(=O)[nH]1 + Cc1cccc(N(C)C(=O)C2C(O)CCN2c2nc(C)cc(C(F)(F)F)c2C#N)c1	75
Nc1ccn(C2OC(CO)C(O)C2(F)F)c(=O)n1 (stereo unspecified) + Cc1cccc(N(C)C(=O)C2C(O)CCN2c2nc(C)cc(C(F)(F)F)c2C#N)c1	13.6
O=c1[nH]cc(F)c(=O)[nH]1 + COC1C(OC(N)=O)C(O)C(Oc2ccc3c(O)c(NC(=O)c4ccc(O)c(CC=C(C)C)c4)c(=O)oc3c2C)OC1(C)C	70.6
CC1COCCN1c1cc(-c2ccnn2C)c2ccnc(-c3ccn[nH]3)c2n1 (stereo unspecified) + COC1C(OC(N)=O)C(O)C(Oc2ccc3c(O)c(NC(=O)c4ccc(O)c(CC=C(C)C)c4)c(=O)oc3c2C)OC1(C)C	9.13

Consider now this further compound.
input: Query the reported viability, T/C for 379773-124-R-J2-PDC spheroid viability; item: COc1cc(C2c3cc4c(cc3C(OC3OC5COC(C)OC5C(O)C3O)C3COC(=O)C23)OCO4)cc(OC)c1O (stereo unspecified) + Nc1ccc(C#CCN(C(=O)Cc2ncc(C(F)(F)F)cc2C(F)(F)F)c2ccc(F)cc2)nn1
output: 16.9

---

- Test system: 379773-124-R-J2-PDC spheroid viability
- experiment-description: Anticancer human tumor 379773-124-R-J2-PDC cell line growth inhibition [POLQ]; active = viability on the fitted dose curve at most 10% of control; inactive = the rest;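 also: spheroids exposed to drugs for seven days before readout; percent viability relative to DMSO vehicle control taken as 100%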
- experimental-conditions: second compound 1 µM; first compound 3.16 µM; spheroids with HUVEC and MSC
Pick one: class 1 (active), class 0 (inactive)

compound	category-label
CCc1cc2c(N3CCc4c(cc(Cn5ccnc5)cc4-c4cn(C)nc4C(F)(F)F)C3=O)cc(C)nc2c(OC)n1 + Nc1ccc(C#CCN(C(=O)Cc2ncc(C(F)(F)F)cc2C(F)(F)F)c2ccc(F)cc2)nn1	class 0
Nc1ccn(C2OC(CO)C(O)C2(F)F)c(=O)n1 (stereo not given) + Cc1cccc(N(C)C(=O)C2C(O)CCN2c2nc(C)cc(C(F)(F)F)c2C#N)c1	class 1
CC1COCCN1c1cc(-c2ccnn2C)c2ccnc(-c3ccn[nH]3)c2n1 (stereo not given) + COC1C(OC(N)=O)C(O)C(Oc2ccc3c(O)c(NC(=O)c4ccc(O)c(CC=C(C)C)c4)c(=O)oc3c2C)OC1(C)C	class 1

input: I'd appreciate the recorded outcome for COc1cc2cc(C(=O)CCC(=O)O)sc2cc1OC + Cc1cccc(N(C)C(=O)C2C(O)CCN2c2nc(C)cc(C(F)(F)F)c2C#N)c1 from this test.
output: class 0

input: Quick one: CCc1cc2c(N3CCc4c(cc(Cn5ccnc5)cc4-c4cn(C)nc4C(F)(F)F)C3=O)ccnc2c(OC)n1 + COC1C(OC(N)=O)C(O)C(Oc2ccc3c(O)c(NC(=O)c4ccc(O)c(CC=C(C)C)c4)c(=O)oc3c2C)OC1(C)C
output: class 0

---

- System: 379773-124-R-J2-PDC spheroid viability
- experiment-description: Anticancer human tumor 379773-124-R-J2-PDC cell line growth inhibition [POLQ]; active means viability on the fitted dose curve at most 10% of control; inactive means the rest;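 also: spheroids exposed to drugs for seven days before readout; percent viability relative to DMSO vehicle control taken as 100%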
- experimental-conditions: second compound 1 µM; first compound 0.1 µM; spheroids with HUVEC and MSC
Pick one: active, inactive

compound	category-label
C#Cc1c(F)ccc2cc(O)cc(-c3ncc4c(N5CC6CCC(C5)N6)nc(OCC56CCCN5CC(F)C6)nc4c3F)c12 (stereo not given) + COC1C(OC(N)=O)C(O)C(Oc2ccc3c(O)c(NC(=O)c4ccc(O)c(CC=C(C)C)c4)c(=O)oc3c2C)OC1(C)C	inactive
COc1cc(C2c3cc4c(cc3C(OC3OC5COC(C)OC5C(O)C3O)C3COC(=O)C23)OCO4)cc(OC)c1O (stereo not given) + COC1C(OC(N)=O)C(O)C(Oc2ccc3c(O)c(NC(=O)c4ccc(O)c(CC=C(C)C)c4)c(=O)oc3c2C)OC1(C)C	inactive
Nc1ccn(C2OC(CO)C(O)C2(F)F)c(=O)n1 (stereo not given) + Nc1ccc(C#CCN(C(=O)Cc2ncc(C(F)(F)F)cc2C(F)(F)F)c2ccc(F)cc2)nn1	inactive
COc1cccc2c1C(=O)c1c(O)c3c(c(O)c1C2=O)CC(O)(C(=O)CO)CC3OC1CC(N)C(O)C(C)O1 (stereo not given) + Nc1ccc(C#CCN(C(=O)Cc2ncc(C(F)(F)F)cc2C(F)(F)F)c2ccc(F)cc2)nn1	inactive
CCc1c2c(nc3ccc(O)cc13)-c1cc3c(c(=O)n1C2)COC(=O)[C@]3(O)CC + Nc1ccc(C#CCN(C(=O)Cc2ncc(C(F)(F)F)cc2C(F)(F)F)c2ccc(F)cc2)nn1	active

input: I'd appreciate the recorded outcome for CC(C)n1c(=O)n(C)c2cnc3cc(F)c(-c4ccc(OCCCN5CCCCC5)nc4)cc3c21 + COC1C(OC(N)=O)C(O)C(Oc2ccc3c(O)c(NC(=O)c4ccc(O)c(CC=C(C)C)c4)c(=O)oc3c2C)OC1(C)C from this test.
output: inactive

input: Quick one: CNCc1ccc(-c2[nH]c3cc(F)cc4c3c2CCNC4=O)cc1 + COC1C(OC(N)=O)C(O)C(Oc2ccc3c(O)c(NC(=O)c4ccc(O)c(CC=C(C)C)c4)c(=O)oc3c2C)OC1(C)C
output: inactive

input: Quick one: O=C(Nc1ccc(O)c(NS(=O)(=O)c2ccc(F)cc2)c1)c1ccc(-c2ccccc2)cc1 + Cc1cccc(N(C)C(=O)C2C(O)CCN2c2nc(C)cc(C(F)(F)F)c2C#N)c1
output: inactive

input: Quick one: O=C(Nc1ccc(O)c(NS(=O)(=O)c2ccc(F)cc2)c1)c1ccc(-c2ccccc2)cc1 + Nc1ccc(C#CCN(C(=O)Cc2ncc(C(F)(F)F)cc2C(F)(F)F)c2ccc(F)cc2)nn1
output: inactive

input: Quick one: CCc1cc2c(N3CCc4c(cc(Cn5ccnc5)cc4-c4cn(C)nc4C(F)(F)F)C3=O)cc(C)nc2c(OC)n1 + Cc1cccc(N(C)C(=O)C2C(O)CCN2c2nc(C)cc(C(F)(F)F)c2C#N)c1
output: inactive
